Test system: MDA-MB-175VII
assay_protocol: Cell viability assay (CellTiter Glo), MDA-MB-175VII
Format: cell-based
details: Homo sapiens, MDA-MB-175-VII, 72 h, read-out: IC50, cell viability, MDA MB 175VII
measured_quantity: pIC50
Reminder that pIC50 means the negative base-10 logarithm of the concentration expressed in mol/L.

Task: Please look at this molecule and report its pIC50: CCOc1cc2ncc(C#N)c(Nc3ccc(OCc4ccccn4)c(Cl)c3)c2cc1NC(=O)/C=C/CN(C)C [Neratinib, neratinib, reference compound]
Output: 8.15

###

target_or_test_system: Ba/F3 ERBB2 A775_G776insYVMA (Homo sapiens, UniProt P04626, DUP772-775, cells depend on it)
Sequence (P04626 with tags, fused parts or gaps DUP772-775): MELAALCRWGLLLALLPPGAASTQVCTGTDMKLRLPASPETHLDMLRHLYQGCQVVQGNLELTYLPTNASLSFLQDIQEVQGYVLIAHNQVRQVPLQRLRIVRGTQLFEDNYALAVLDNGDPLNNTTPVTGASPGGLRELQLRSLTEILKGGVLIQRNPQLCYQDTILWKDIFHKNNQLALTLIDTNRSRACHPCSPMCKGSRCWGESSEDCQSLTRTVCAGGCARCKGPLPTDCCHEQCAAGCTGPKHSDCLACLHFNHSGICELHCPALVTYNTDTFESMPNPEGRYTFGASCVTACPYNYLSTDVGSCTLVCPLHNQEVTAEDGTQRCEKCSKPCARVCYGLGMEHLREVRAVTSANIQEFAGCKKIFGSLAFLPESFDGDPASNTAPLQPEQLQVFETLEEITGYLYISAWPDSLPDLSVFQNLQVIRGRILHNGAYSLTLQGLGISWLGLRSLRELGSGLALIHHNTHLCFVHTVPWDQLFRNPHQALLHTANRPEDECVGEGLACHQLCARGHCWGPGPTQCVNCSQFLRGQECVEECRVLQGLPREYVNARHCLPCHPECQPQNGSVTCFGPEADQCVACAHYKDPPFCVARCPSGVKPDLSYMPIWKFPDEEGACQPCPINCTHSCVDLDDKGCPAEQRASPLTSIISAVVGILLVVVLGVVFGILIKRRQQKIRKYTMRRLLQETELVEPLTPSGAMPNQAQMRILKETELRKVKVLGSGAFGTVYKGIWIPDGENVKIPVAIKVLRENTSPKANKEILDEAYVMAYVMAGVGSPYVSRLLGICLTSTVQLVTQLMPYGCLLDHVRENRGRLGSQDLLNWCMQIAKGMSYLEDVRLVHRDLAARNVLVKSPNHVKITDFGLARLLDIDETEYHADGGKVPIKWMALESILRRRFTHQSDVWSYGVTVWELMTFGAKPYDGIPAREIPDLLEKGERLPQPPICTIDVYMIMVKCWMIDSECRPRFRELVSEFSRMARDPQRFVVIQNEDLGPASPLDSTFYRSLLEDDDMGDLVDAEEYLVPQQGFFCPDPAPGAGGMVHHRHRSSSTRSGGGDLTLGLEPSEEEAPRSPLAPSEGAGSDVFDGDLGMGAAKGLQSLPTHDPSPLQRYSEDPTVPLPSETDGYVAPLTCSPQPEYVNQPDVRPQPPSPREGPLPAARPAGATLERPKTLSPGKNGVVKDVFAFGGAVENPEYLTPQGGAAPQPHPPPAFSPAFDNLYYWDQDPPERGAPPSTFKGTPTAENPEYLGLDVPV
assay_protocol: Cell viability assay, Ba/F3 ERBB2 A775_G776insYVMA
Assay type: cell-based, mouse
details: Ba/F3 ERBB2 YVMA cells, cell viability, 72 hours, CellTiter Glo; Table B5; read-out: Ba/F3 ERBB2 YVMA, IC50
Counter-ions that a name gives are not always drawn.
measured_quantity: GI50

Solved entries:
[[record]]
compound = "Cc1c(Oc2ccc3c(c2)ncn3C)ccc(Nc2ncnc3ccc(N4CC/C(=C\\CN(C)C)C4=O)nc23)c1F"
reported_result = "3.57 nM"

[[record]]
compound = "CC1CN(c2ccc3ncnc(Nc4ccc(Oc5ccn6ncnc6c5)c(F)c4)c3n2)C(=O)/C1=C/CN(C)C (single isomer, unassigned) [Example S127, Enantiomer #2]"
reported_result = "418 nM"

[[record]]
compound = "CN(C)C/C=C1\\CCN(c2ccc3ncnc(Nc4ccc(Oc5ccn6ncnc6c5)cc4F)c3n2)C1=O"
reported_result = "23.3 nM"

[[record]]
compound = "Cc1cc(Nc2ncnc3ccc(N4CC/C(=C\\CN(C)C)C4=O)nc23)ccc1Oc1ccc2c(c1)nnn2C"
reported_result = "3.81 nM"


Task: Answer with the recorded GI50 for the compound listed here: C=C1C(=O)N(c2ccc3ncnc(Nc4ccc(Oc5ccn6ncnc6c5)c(C)c4)c3c2)CC1COCCN(C)C (single isomer, unassigned) [Example S111, Enantiomer #2]
Output: 10.8 nM

Task: Input Cc1c(Oc2ccn3ncnc3c2)ccc(Nc2ncnc3ccc(N4CC/C(=C\CN(C)C)C4=O)nc23)c1F [Compound 78, hydrochloride] , output reported GI50.
Output: 9.92 nM

###

target_or_test_system: phosphorylated ERBB2 (pERBB2) (Homo sapiens)
Construct: endogenous in cells
assay_protocol: Detection of phosphorylated ERBB2 (pERBB2) by ELISA in BT-474 cells
details: four hours incubation
measured_quantity: log10(IC50) (log10 of the value in nM)
Parameter value (number): base-10 log of IC50 in nM.

Worked cases, log10(IC50) given:
[[record]]
compound = "CCc1ccc(Oc2ccc(Nc3ncnc4ccc(N5CC/C(=C\\CN(C)C)C5=O)nc34)cc2C)cn1"
reported_result = 1.65

[[record]]
compound = "CN(C)C/C=C1\\CCN(c2ccc3ncnc(Nc4ccc(Oc5cccnc5)c(F)c4)c3n2)C1=O"
reported_result = 2.00

[[record]]
compound = "Cc1cc(Nc2ncnc3ccc(N4CC/C(=C\\CN(C)C)C4=O)nc23)c(F)cc1Oc1ccn2ncnc2c1"
reported_result = 0.94


Task: Please list log10(IC50) recorded for the compound `Cc1cc(Nc2ncnc3ccc(N4CC/C(=C\CCN(C)C)C4=O)nc23)ccc1Oc1ccn2ncnc2c1`
Output: 1.09

Task: Recall and state the measured log10(IC50) for `C=C1CCN(c2ccc3ncnc(Nc4ccc(Oc5ccn6ncnc6c5)c(C)c4)c3c2)C1=O` .
Output: 0.90

Task: Please indicate log10(IC50) recorded for Cc1cc(Nc2ncnc3cnc(N4CC(C)/C(=C\CN(C)C)C4=O)cc23)c(F)cc1Oc1ccc2c(c1)nnn2C (single isomer, unassigned) [Example S115, Enantiomer #1]
Output: 1.51

Task: Output log10(IC50) of CC1CN(c2cc3c(Nc4ccc(Oc5ccc6c(c5)nnn6C)cc4)ncnc3cn2)C(=O)/C1=C/CN(C)C (single isomer, unassigned) [Compound 137]
Output: 3.61

###

target_or_test_system: phosphorylated EGFR (pEGFR) (Homo sapiens, UniProt P00533)
Construct: performed to measure phosphorylated EGFR levels using A431 cells (10% FBS); endogenous in cells
Sequence (P00533 25-1210): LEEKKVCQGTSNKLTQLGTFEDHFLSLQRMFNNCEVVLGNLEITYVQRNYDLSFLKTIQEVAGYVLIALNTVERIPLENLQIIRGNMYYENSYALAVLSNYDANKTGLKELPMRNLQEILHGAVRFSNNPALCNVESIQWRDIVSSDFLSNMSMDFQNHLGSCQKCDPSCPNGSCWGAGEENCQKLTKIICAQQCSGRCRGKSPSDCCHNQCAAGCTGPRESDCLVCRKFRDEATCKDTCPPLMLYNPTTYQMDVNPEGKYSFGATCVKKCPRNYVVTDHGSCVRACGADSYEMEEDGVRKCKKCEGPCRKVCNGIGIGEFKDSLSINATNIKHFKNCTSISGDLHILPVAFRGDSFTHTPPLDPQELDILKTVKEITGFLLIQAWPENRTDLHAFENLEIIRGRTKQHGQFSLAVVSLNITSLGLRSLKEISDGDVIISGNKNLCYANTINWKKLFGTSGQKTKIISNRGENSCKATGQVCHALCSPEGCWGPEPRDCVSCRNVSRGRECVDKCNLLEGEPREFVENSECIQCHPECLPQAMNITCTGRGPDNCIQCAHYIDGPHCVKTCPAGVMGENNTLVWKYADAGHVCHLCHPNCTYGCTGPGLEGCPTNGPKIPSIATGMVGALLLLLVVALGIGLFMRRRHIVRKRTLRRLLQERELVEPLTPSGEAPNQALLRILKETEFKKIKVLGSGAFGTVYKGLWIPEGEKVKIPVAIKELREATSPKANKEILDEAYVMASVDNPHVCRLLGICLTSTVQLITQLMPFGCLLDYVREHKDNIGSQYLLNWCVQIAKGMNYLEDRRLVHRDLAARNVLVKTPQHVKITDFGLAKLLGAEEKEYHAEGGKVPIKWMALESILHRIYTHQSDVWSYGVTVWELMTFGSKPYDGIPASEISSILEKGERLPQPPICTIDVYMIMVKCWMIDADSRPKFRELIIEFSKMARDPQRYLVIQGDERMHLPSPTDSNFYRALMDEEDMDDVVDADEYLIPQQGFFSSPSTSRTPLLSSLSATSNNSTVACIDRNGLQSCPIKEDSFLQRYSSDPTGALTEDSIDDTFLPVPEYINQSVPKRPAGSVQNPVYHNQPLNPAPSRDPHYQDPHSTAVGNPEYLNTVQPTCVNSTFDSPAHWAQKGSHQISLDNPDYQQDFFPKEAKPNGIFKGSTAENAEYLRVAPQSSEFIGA
assay_protocol: Detection of phosphorylated EGFR (pEGFR) in EGF-stimulated A431 cells
details: A431 cells (10% FBS), 4 hours incubation, EGF 30 ng/mL 10 minutes, AlphaLISA
measured_quantity: IC50 (µM)
Report as a plain number; the unit µM is understood.

Past entries and their recorded results:
[[record]]
compound = "Cc1cc(Nc2ncnc3cnc(N4CC/C(=C\\CN(C)C)C4=O)cc23)ccc1Oc1ccn2c(C)cnc2c1"
reported_result = 3.99

[[record]]
compound = "C=C1C(=O)N(c2ccc3ncnc(Nc4ccc(Oc5ccn6ncnc6c5)c(C)c4)c3c2)CC1CO (stereo not shown)"
reported_result = 0.405

[[record]]
compound = "CN(C)C/C=C1\\CCN(c2ccc3ncnc(Nc4ccc(Oc5ccn6ncnc6c5)cc4F)c3n2)C1=O"
reported_result = 7.76


Task: Identify measured IC50 associated with `C=C1CCN(c2ccc3ncnc(Nc4ccc(Oc5ccn6ncnc6c5)c(C)c4)c3c2)C1=O`
Output: 1.23

###

target_or_test_system: phosphorylated EGFR (pEGFR) (Homo sapiens, UniProt P00533)
Construct: performed to measure phosphorylated EGFR levels using A431 cells (10% FBS); endogenous in cells
assay_protocol: Detection of phosphorylated EGFR (pEGFR) in EGF-stimulated A431 cells
details: A431 cells (10% FBS), 4 hours incubation, EGF 30 ng/mL 10 minutes, AlphaLISA
measured_quantity: pIC50
A value of pIC50 is the negative decimal logarithm of a concentration given in moles per litre.

Previously resolved entries follow.
[[record]]
compound = "C=C1CCN(c2ccc3ncnc(Nc4ccc(Oc5ccn6ncnc6c5)c(C)c4)c3n2)C1=O"
target_or_test_system = "phosphorylated EGFR (pEGFR) (Homo sapiens, UniProt P00533)"
measured_quantity = "pIC50"
reported_result = 5.21

[[record]]
compound = "C=C1C(=O)N(c2cc3c(Nc4ccc(Oc5ccn6ncnc6c5)c(C)c4)ncnc3cn2)C2CC12 (single isomer, unassigned; enantiomer 1) [Example S40, Enantiomer # 1]"
target_or_test_system = "phosphorylated EGFR (pEGFR) (Homo sapiens, UniProt P00533)"
measured_quantity = "pIC50"
reported_result = 6.99


Now examine the next entry.
Task: Specify measured pIC50 for `C=C1CCCN(c2cc3c(Nc4ccc(Oc5ccc6c(c5)ncn6C)c(C)c4)ncnc3cn2)C1=O` .
Output: 5.92

###

target_or_test_system: phosphorylated ERBB2 (pERBB2) (Homo sapiens, UniProt P04626)
Construct: endogenous in cells
Sequence (P04626 23-1255): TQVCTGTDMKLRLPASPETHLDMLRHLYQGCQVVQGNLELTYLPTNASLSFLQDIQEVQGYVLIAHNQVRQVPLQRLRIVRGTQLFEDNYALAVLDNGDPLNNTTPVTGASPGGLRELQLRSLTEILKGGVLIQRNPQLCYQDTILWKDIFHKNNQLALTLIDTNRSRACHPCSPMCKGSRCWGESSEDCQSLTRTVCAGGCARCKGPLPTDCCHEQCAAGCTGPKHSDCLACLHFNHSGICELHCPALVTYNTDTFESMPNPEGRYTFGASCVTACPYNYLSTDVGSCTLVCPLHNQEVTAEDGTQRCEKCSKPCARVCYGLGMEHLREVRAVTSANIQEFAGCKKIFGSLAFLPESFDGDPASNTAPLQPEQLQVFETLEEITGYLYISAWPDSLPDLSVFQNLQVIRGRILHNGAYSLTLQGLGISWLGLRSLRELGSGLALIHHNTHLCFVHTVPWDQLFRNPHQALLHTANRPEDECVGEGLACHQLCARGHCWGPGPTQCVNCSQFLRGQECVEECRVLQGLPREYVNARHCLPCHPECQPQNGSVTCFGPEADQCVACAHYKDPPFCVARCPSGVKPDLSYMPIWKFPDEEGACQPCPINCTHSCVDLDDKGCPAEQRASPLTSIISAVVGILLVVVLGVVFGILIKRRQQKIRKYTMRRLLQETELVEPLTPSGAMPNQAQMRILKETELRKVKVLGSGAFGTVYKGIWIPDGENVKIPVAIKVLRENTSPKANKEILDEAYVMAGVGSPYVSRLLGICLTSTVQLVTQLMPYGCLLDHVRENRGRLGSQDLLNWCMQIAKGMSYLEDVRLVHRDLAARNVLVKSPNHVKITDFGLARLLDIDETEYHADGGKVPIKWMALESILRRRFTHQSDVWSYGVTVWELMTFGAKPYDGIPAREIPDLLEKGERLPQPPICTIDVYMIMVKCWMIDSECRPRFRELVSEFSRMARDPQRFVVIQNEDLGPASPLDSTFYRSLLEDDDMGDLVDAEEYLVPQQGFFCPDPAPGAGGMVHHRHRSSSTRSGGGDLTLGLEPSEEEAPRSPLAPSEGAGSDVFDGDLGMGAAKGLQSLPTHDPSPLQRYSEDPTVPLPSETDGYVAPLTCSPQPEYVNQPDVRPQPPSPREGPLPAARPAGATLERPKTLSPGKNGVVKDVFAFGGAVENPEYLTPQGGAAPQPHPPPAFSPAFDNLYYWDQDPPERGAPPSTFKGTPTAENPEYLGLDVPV
assay_protocol: Detection of phosphorylated ERBB2 (pERBB2) by ELISA in BT-474 cells
details: four hours incubation
Structures can show the parent of a compound that is named as a salt.
measured_quantity: IC50 (nM)
Answer with a number only, understood to be in nM.

[[record]]
compound = "CCn1cnc2cc(Oc3ccc(Nc4ncnc5ccc(N6CC/C(=C\\CN(C)C)C6=O)nc45)cc3C)ccc21 [Compound 65]"
reported_result = 128

[[record]]
compound = "Cc1cc(Nc2ncnc3ccc(N4CC/C(=C\\CN(C)C)C4=O)nc23)ccc1Oc1cccnc1 [Compound 62]"
reported_result = 23.9

[[record]]
compound = "[2H]C([2H])([2H])N(C/C=C1\\CCN(c2ccc3ncnc(Nc4ccc(Oc5ccc6c(c5)ncn6C([2H])([2H])[2H])c(C)c4)c3n2)C1=O)C([2H])([2H])[2H] [Compound 106]"
reported_result = 28.2

[[record]]
compound = "Cc1cc(Nc2ncnc3ccc(N4CCC(=CCN(C)C)C4=O)cc23)ccc1Oc1ccn2ncnc2c1 (single isomer, unassigned) [Compound 17]"
reported_result = 19.7

[[record]]
compound = "Cc1cc(Nc2ncnc3ccc(N4CC/C(=C\\CN(C)C)C4=O)cc23)ccc1Oc1ccn2ncnc2c1 [Compound 18, hydrochloride]"
reported_result = 7.52


Task: // Input: CN(C)C/C=C1\CCN(c2cc3c(Nc4ccc(Oc5ccc6c(c5)ncn6C)c(F)c4)ncnc3cn2)C1=O [Compound 128] . Output its IC50 only.
Output: 21.4

Task: For the compound CN(C)C/C=C1\CCN(c2cc3c(Nc4ccc(Oc5ccn6ncnc6c5)c(F)c4)ncnc3cn2)C1=O [Compound 129] , give its reported IC50.
Output: 11.9

Task: Let me know recorded IC50 for Cc1cc(Nc2ncnc3ccc(N4CC/C(=C\CN(C)C)C4=O)nc23)ccc1Cc1ccc2c(c1)ncn2C [Compound 54] , thanks.
Output: 42

Task: Kindly indicate its recorded IC50. Item: C=C1C(=O)N(c2ccc3ncnc(Nc4ccc(Oc5ccn6ncnc6c5)c(C)c4)c3c2)C2CC12 (single isomer, unassigned) [Example S21, Enantiomer # 2]
Output: 22.3

Task: Fill in reported IC50 for this entry: Cc1ccc(Oc2ccc(Nc3ncnc4cnc(N5CC/C(=C\CN(C)C)C5=O)cc34)cc2C)cn1 [Compound 75]
Output: 20.4

Task: Let me know recorded IC50 for Cc1cc(Nc2ncnc3ccc(N4C(=O)C(=CCN(C)C)C5CC54)nc23)ccc1Oc1ccn2ncnc2c1 (single isomer, unassigned) [Example S108, Enantiomer #1] , thanks.
Output: 19.1

Task: Tell me its IC50 given Cc1cc(Nc2ncnc3ccc(N4CC/C(=C\CN(C)C)C4=O)nc23)ccc1Oc1ccn2nnnc2c1 [Compound 108] as the entry.
Output: 13.2

Provenance of the data: patent US20240116921A1
